# tested.target: T1, human TIGIT-Fc (human, UniProt Q495A1 22-141, limits assumed)
# T1 construct: not shown: Fc; not described
# T1 sequence (looked up): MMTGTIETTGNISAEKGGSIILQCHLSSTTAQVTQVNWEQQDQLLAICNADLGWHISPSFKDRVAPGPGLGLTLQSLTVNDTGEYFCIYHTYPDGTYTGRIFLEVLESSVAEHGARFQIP
# test.summary: CD155 competition ELISA, single point; also: test concentration or dose not given here
# binning rule on OD (450 nm): lower band: < 0.4 OD; central band: ≥ 0.4 OD and < 0.6 OD; upper band: ≥ 0.6 OD

Check out these entries, answers already filled in.
>  <binder>
TIGIT-SC155 (Fc fusion, VHH-Fc) VHH: EVQLVESGGGLVQPGGSLRLSCAASGNTFSGGFMGWFRQAPGKEREWVASVLRGGYTWYADSVKGRFTISADNSKNTAYLQMNSLKPEDTAVYYCAGDYRGFEMAFDPWGQGTLVTVSS

>  <label.value>
central band

$$$$
>  <binder>
TIGIT-SC96 (Fc fusion, VHH-Fc) VHH: EVQLVESGGGLVQPGGSLRLSCAASGMTTIGPMGWFRQAPGKEREFVAAINWSGSSTVYADSVKGRFTISADNSKNTAYLQMNSLKPEDTAVYYCVTYSAYDFRNAWGQGTLVTVSS

>  <label.value>
upper band

$$$$
>  <binder>
TIGIT-SC74 (Fc fusion, VHH-Fc) VHH: EVQLVESGGGLVQPGGSLRLSCAASGRTFANNAMGWFRQAPGKEREFVAAINWSGGNTYYADSVKGRFTISADNSKNTAYLQMNSLKPEDTAVYYCAKWSYYGSGLYGMDVWGQGTLVTVSS

>  <label.value>
upper band

$$$$
>  <binder>
TIGIT-SC186 (Fc fusion, VHH-Fc) VHH: EVQLVESGGGLVQPGGSLRLSCAASGNTFSGGFMGWFRQAPGKEREYVASVLRGGYTWYADSVKGRFTISADNSKNTTYLQMNSLKPEDTAVYYCTTDRGYNWNYDWGQGTLVTVSS

>  <label.value>
central band

$$$$
>  <binder>
TIGIT-SC10 (Fc fusion, VHH-Fc) VHH: EVQLVESGGGLVQPGGSLRLSCAASGNTFSGGFMGWFRQAPGKEREWVASVLRGGYTWYADSVKGRFTISADNSKNTAYLQMNSLKPEDTAVYYCASDPWGTRYFDHWGQGTLVTVSS

>  <label.value>
upper band

$$$$

Lookup: Hi, small favor: classify TIGIT-SC94 (Fc fusion, VHH-Fc) VHH: EVQLVESGGGLVQPGGSLRLSCAASGSSFSAYAMGWFRQAPGKEREFVSLINWSSGKTIYADSVKGRFTISADNSKNTAYLQMNSLKPEDTAVYYCARVRIFNHVHRPSYYFDYWGQGTLVTVSS by its OD (450 nm) when you get a moment.
Found: central band
